# method.notes: Primary qHTS for inhibitors of MERS-S pseudo-typed particle cell entry (AID 1479149); further: nearly all actives have a fitted effect of over 60% in size
# condition.info: MERS-S pseudotyped particle entry, luciferase; series mostly up to 57.1 µM
Records with an inconclusive call do not appear. Activity calls are given as the source filed them. The call rests on the fitted dose curve.
Possible outcomes: yes (active), no (inactive)

INSERT INTO results (mol_smiles, label_value) VALUES
  ('Nc1c(CC(=O)O)cccc1C(=O)c1ccccc1', 'no'),
  ('CC(C)C[C@H](NC(=O)CNC(=O)c1cc(Cl)ccc1Cl)B1OC(=O)C(CC(=O)O)(CC(=O)O)O1', 'yes'),
  ('CCN1/C(=C/C=C/C=C/c2sc3ccccc3[n+]2CC)Sc2ccccc21', 'yes'),
  ('CO/N=C(\C(=O)N[C@@H]1C(=O)N2C(C(=O)O)=C(Cn3ccc(=N)n3CCO)CS[C@H]12)c1csc(N)n1', 'no'),
  ('C=C(C)[C@@H]1CCC(C)=C[C@H]1c1c(O)cc(CCCCC)cc1O', 'no');
